# abundance fitness listing for each entry below
B1: Transcription intermediary factor 1-beta, residues 620 to 671; numbered along this chain, Q13263 (parent)
chain: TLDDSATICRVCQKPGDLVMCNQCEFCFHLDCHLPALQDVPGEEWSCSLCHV

# Variants of: B1
# assay.overview: abundance fitness (aPCA) (normalised: wild type 0, dead -1); higher = more abundant; growth selection in yeast, the domain comes from the species named
# assay.context: Homo sapiens
observable: abundance fitness

mutant.label	observed
D17I	-0.409
W45L	-0.195
L2C	-0.198
